These entries and their values trace back to ChEMBL document CHEMBL1201862.

I'd be grateful if you could share measured GI50 for these entries.
Test system: Malme-3M
Assay: NCI tumour cell line growth inhibition, 48 h
The source made the active and inactive calls. Cut-off read from the data, not from the text of the source: active = GI50 up to about 1.1 µM and inactive = higher.

Quote GI50 reported for Cc1cc(N(CCC#N)CCC#N)ccc1/C=C/C(=O)Nc1cccc(Cl)c1 please. > 100 µM (inactive)

Quote GI50 reported for CC(=O)OCC1OC(n2c3c(c(-c4ccco4)c(C#N)c2=S)CCC3)C(OC(C)=O)C(OC(C)=O)C1OC(C)=O (stereo not given) please. > 100 µM (inactive)

Quote GI50 reported for Cc1cc(CC(O)c2ccc(Cl)c(Cl)c2)nc(O)n1 (stereo not given) please. 81.8 µM (inactive)

Quote GI50 reported for O=[N+]([O-])c1ccc2[nH]c3c(-c4ccccc4)nccc3c2c1 please. 18.9 µM (inactive)

Quote GI50 reported for O=C1C=C/C(=N\N=C(c2ccccc2)c2ccccc2)O1 please. > 10 µM (inactive)

Quote GI50 reported for CC1(C)CC(=O)C2=C(C1)OC1=C(CC(C)(C)CC1=O)C2c1ccccc1[N+](=O)[O-] (stereo not given) please. > 100 µM (inactive)

Quote GI50 reported for COc1cc2c(cc1OC)C13CCN4C=C5CCOC6CC(=O)N2C1C6C5CC43 (stereo not given) please. > 100 µM (inactive)

Quote GI50 reported for CCC(/C=C/C1OC(=O)C=CC1C)=C\C(C)C/C=C/C(C)=C/C(C)C(=O)C(C)C(O)C(C)C/C(C)=C/C(=O)O (stereo not given) please. 1.44 µM (inactive)

Quote GI50 reported for CCCCCC(/C=C/C1CCC(=O)C1CC#C[Si](C)(C)C)OCc1ccccc1 (stereo not given) please. 15.9 µM (inactive)

Quote GI50 reported for COc1ccccc1/C=C/C1=NN(c2cccc(S(=O)(=O)O)c2)C2(C1)C(Cl)C(=O)N2c1nc2ccccc2s1 (stereo not given) please. > 100 µM (inactive)

Quote GI50 reported for CCOC(=O)C(=O)Nc1nc2ccc(C)cc2s1 please. > 100 µM (inactive)

Quote GI50 reported for COc1ccccc1-c1cc(=O)c2ccccc2[nH]1 please. 49 µM (inactive)

Quote GI50 reported for O=[N+]([O-])c1cccc(C2=NN(c3ccccc3)C3c4ccccc4OCC23)c1 (stereo not given) please. > 100 µM (inactive)

Quote GI50 reported for C[N+](C)(CCNc1ccc(NCC[N+](C)(C)Cc2ccc([N+](=O)[O-])cc2)c2c1C(=O)c1c(O)ccc(O)c1C2=O)Cc1ccc([N+](=O)[O-])cc1 please. 30 µM (inactive)

Quote GI50 reported for c1ccc(-c2cs[s+]c2)cc1 please. > 100 µM (inactive)

Quote GI50 reported for COc1cccc(Nc2nc(NNC(=O)Cc3ccccc3)nc(NNC(=O)c3ccncc3)n2)c1 please. > 10 µM (inactive)

Quote GI50 reported for COC1=CC(=O)c2c(cc(COP(N)(=O)N(CCCl)CCCl)n2C)C1=O (stereo not given) please. 1.4 µM (inactive)

Quote GI50 reported for O=c1cc(N2CCCC2)[nH]c(=O)n1-c1ccc(F)cc1 please. > 100 µM (inactive)

Quote GI50 reported for Cc1ccc(C(O)c2cnc(C)n2Cc2ccccc2)cc1 (stereo not given) please. > 100 µM (inactive)

Quote GI50 reported for CC(C)CCNC(=O)c1ccc(CNC(=O)/C=C/c2ccc3c(c2)-c2ccccc2C3)cc1 please. 17.3 µM (inactive)
